# Assay Target: Ago1 (RISC) (UniProt A1Z9J5)
# Sequence (A1Z9J5 entry or part of it): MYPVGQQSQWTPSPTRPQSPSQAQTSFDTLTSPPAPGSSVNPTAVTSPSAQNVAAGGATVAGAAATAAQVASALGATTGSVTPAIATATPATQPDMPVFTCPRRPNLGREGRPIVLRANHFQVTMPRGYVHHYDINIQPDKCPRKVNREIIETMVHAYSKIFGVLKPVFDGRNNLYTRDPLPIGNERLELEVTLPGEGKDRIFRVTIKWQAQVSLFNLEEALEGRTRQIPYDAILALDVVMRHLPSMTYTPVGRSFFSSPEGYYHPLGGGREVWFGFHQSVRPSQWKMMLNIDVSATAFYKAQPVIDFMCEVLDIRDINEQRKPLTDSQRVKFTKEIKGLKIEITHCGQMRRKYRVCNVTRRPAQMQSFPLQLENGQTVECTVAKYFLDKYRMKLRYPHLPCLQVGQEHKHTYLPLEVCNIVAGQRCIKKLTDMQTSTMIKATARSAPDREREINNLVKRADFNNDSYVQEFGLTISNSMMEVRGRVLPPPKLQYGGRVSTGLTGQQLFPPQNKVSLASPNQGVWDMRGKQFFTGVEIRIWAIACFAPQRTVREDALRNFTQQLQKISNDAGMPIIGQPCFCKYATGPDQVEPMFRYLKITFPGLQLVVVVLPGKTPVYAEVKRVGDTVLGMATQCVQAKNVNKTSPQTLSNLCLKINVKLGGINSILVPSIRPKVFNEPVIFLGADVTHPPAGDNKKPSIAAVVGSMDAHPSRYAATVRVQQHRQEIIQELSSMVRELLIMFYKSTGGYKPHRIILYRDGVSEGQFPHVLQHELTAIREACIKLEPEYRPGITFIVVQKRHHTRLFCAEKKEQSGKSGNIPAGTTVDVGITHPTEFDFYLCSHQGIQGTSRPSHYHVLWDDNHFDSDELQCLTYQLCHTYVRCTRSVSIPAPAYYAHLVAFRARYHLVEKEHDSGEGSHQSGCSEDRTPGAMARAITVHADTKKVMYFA
# Test Details: RBNS
# Cond: miR-184 guide; RBNS: 20 mM HEPES-KOH pH 7.9, 100 mM KOAc, 3.5 mM Mg(OAc)2, 0.05% CHAPS, 2 mM DTT, 8% glycerol, BSA, tRNA, 25 C, 2 h; filter binding: 25 mM HEPES-KOH pH 7.9 …
pKd: −log10 of the molar value.

{"Residue String": "UCCGUCUB / UGGACGGAGAACUGAUAAGGGC [miR-184 / 7mer-m8,w2]", "pKd": 9.81}

* * *

# Assay Target: PUM2 (Homo sapiens)
# Sequence: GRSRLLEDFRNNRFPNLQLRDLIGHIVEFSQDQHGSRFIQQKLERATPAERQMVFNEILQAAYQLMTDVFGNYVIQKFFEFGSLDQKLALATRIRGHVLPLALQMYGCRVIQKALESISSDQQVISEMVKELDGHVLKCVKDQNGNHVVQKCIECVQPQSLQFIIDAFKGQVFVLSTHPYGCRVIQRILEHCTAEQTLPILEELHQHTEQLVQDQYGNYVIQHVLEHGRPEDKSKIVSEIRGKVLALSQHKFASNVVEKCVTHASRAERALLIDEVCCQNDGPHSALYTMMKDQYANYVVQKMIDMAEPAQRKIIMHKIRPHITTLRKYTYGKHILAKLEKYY
# Test Details: RBNS
# Cond: re-analysis of published RBNS data (ref 38); RBNS: 20 mM HEPES-KOH pH 7.9, 100 mM KOAc, 3.5 mM Mg(OAc)2, 0.05% CHAPS, 2 mM DTT, 8% glycerol, BSA, tRNA, 25 C, 2 h; filter binding: 25 mM HEPES-KOH pH 7.9 …

{"Residue String": "UGUAUAUA [PUM consensus site]", "Kd, nM": 0.12}

* * *

# Assay Target: Ago1 (RISC) (UniProt A1Z9J5)
# Test Details: RBNS
# Cond: bantam guide; RBNS: 20 mM HEPES-KOH pH 7.9, 100 mM KOAc, 3.5 mM Mg(OAc)2, 0.05% CHAPS, 2 mM DTT, 8% glycerol, BSA, tRNA, 25 C, 2 h; filter binding: 25 mM HEPES-KOH pH 7.9 …
pKd: −log10 of the molar value.

{"Residue String": "UGAUCUUB / UGAGAUCAUUUUGAAAGCUGAUU [bantam / 7mer-m8,w2]", "pKd": 9.06}
